Molecular target: BRM (Homo sapiens, UniProt P51531)
Sequence (P51531 whole entry): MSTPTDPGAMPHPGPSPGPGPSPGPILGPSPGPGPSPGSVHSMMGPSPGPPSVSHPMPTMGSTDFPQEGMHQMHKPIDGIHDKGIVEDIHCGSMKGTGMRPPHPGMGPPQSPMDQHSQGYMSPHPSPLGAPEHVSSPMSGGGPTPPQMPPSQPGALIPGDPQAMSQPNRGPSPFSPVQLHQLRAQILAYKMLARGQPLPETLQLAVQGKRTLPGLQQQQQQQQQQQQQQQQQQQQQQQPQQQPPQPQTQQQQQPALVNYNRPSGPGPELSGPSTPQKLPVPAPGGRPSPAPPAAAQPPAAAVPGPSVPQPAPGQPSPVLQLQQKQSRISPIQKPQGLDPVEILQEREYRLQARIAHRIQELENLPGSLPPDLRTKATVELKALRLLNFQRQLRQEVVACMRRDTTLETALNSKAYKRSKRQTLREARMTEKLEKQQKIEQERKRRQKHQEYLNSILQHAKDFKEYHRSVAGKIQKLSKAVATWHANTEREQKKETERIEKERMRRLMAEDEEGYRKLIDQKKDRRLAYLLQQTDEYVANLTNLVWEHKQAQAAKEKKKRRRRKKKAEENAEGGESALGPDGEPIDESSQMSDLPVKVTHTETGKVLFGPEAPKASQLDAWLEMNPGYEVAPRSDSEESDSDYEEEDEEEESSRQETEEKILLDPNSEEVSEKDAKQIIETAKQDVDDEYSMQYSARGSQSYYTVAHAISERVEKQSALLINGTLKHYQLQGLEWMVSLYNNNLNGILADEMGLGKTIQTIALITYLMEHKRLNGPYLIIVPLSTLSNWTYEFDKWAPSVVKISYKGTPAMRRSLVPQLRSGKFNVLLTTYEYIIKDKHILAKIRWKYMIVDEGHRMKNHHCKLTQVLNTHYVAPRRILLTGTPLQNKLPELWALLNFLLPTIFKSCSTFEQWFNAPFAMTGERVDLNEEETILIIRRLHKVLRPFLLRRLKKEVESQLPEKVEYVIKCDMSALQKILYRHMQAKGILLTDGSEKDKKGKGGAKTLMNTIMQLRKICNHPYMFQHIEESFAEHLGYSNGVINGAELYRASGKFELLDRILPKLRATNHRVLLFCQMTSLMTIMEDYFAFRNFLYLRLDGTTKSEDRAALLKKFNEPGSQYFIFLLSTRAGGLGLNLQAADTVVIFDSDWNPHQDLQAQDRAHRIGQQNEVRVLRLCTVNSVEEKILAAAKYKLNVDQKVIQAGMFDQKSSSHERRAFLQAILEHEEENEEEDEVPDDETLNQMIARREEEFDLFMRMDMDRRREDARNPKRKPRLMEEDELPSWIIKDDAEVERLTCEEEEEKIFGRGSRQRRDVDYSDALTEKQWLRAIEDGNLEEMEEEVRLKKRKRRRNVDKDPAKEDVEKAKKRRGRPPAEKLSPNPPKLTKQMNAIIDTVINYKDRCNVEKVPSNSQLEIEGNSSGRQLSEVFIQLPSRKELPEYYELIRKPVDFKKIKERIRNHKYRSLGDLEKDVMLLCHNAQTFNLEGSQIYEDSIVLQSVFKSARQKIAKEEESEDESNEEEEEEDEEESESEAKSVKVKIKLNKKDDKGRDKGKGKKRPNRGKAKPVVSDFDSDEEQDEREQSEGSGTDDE
Assay: ATPase catalytic activity assay (ADP-Glo), BRM
Conditions: 30 nM BRM, 400 μM ATP

[
  {
    "compound.structure": "Cn1ccc2ccc(-c3ccc4cnc(CNC(=O)c5ccc6c(c5)[C@](C)(C#N)COC6)cc4n3)nc2c1=O",
    "BRM Max % Inhibition [%]": 86
  },
  {
    "compound.structure": "C[C@@]1(C#N)COCc2ccc(C(=O)NCc3cc(N4CCC5(C4)CN(c4ccccc4)C5)ccn3)cc21",
    "BRM Max % Inhibition [%]": 82
  },
  {
    "compound.structure": "CC(C)n1ccc2c(-c3ccc4cnc(CNC(=O)c5ccc6c(c5)[C@](C)(C#N)COC6)cc4n3)cccc21",
    "BRM Max % Inhibition [%]": 98
  },
  {
    "compound.structure": "COc1c(-c2ccc3cnc(CNC(=O)c4ccc5c(c4)[C@](C)(C#N)COC5)cc3n2)ccc2cnn(C)c12",
    "BRM Max % Inhibition [%]": 98
  },
  {
    "compound.structure": "C[C@@]1(F)COCc2ccc(C(=O)NCc3cc4nc(-c5cccc(N6CCC6)n5)ccc4cn3)cc21",
    "BRM Max % Inhibition [%]": 100
  },
  {
    "compound.structure": "C[C@@]1(F)COCc2ccc(C(=O)NCc3cc4nc(-c5ccnc(N6CCC6)n5)ccc4cn3)cc21",
    "BRM Max % Inhibition [%]": 99
  },
  {
    "compound.structure": "C[C@@]1(C#N)COCc2ccc(C(=O)NCc3cc4c(cn3)CCN(c3ccnc(N5CCOCC5)n3)C4)cc21",
    "BRM Max % Inhibition [%]": 93
  }
]
